Measured values drawn from patent US20200345804A1 for this set.

target: recombinant BIR3 domain of cIAP2 with N-terminal 6xHis tag (Artificial Sequence); assay: DELFIA displacement of AVPI-Biotin
Sequence (chain, as listed by the source limits assumed): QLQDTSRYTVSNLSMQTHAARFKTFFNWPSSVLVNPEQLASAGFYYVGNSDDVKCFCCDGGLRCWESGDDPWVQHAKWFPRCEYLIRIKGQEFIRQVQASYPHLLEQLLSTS
QUANTITY MEASURED: pIC50
// pIC50 here means minus log10 of the molar concentration (mol/L)

Data point: `AVPF` ; pIC50 = 6.77
